# experimental-system: T1, cynomolgus monkey CCR8 expressed on cells (cynomolgus monkey, UniProt G7NYJ2 1-355)
# T1 construct: whole, on cells; also called cyno CCR8; CyCCR8
# T1 sequence (G7NYJ2 entry or part of it): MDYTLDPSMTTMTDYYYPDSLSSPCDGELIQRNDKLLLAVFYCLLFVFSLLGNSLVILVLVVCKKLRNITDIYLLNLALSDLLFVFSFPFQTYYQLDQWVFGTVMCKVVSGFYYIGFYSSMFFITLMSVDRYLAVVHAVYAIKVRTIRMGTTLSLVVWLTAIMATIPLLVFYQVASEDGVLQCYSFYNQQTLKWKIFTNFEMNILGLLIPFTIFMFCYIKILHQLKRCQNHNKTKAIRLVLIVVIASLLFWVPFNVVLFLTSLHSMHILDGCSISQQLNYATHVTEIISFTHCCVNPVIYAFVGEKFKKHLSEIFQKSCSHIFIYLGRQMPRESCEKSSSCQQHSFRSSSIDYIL
# test-details: on-cell affinity, flow cytometry on 293T cells expressing cyno CCR8
pKd: −log10 of the molar value.
quantity: pKd

binder="anti-CCR8-1-5 (antibody, V domains shown, Parental-1 heavy chain with a shuffled lambda light chain; Human IgG expressed in CHO cells) VH: QVQLVQSGAEVKKPGASVKVSCKASGYTFTSYYMHWVRQAPGQGLEWMGIINPSGGSTSYAQKFQGRVTMTRDTSTSTVYMELSSLRSEDTAVYYCARGVGNGFRFDYWGQGTLVT VL: QSALTQPPSVSGSPGQSITISCSGTSSDVGSYNLVSWYQQEPGKAPKLIIYEVNKRPSGVSNRFSGSKSGNTASLTISGLQAEDEADYHCSSYAGSSTYVVFGGGTKLTVL" quantity=pKd result_qualifier== measured_number=7.31
binder="anti-CCR8-1 (antibody, human IgG1, V domains shown) VH: QVQLVQSGAEVKKPGASVKVSCKASGYTFTSYYMHWVRQAPGQGLEWMGIINPSGGSTSYAQKFQGRVTMTRDTSTSTVYMELSSLRSEDTAVYYCARAVRNRFRFDYWGQGTLVTVSS VL: QSALTQPASVSGSPGQSITISCTGTSSDVGSYNLVSWYQQHPGKAPKLMIYEVSKRPSGVSNRFSGSKSGNTASLTISGLQAEDEADYYCSSYAGSSTFVVFGGGTKLTVL" quantity=pKd result_qualifier=< measured_number=7.30
binder="anti-CCR8-1-1 (antibody, V domains shown, Parental-1 heavy chain with a shuffled lambda light chain; Expressed from a mammalian expression vector in CHO cells as human IgG) VH: QVQLVQSGAEVKKPGASVKVSCKASGYTFTSYYMHWVRQAPGQGLEWMGIINPSGGSTSYAQKFQGRVTMTRDTSTSTVYMELSSLRSEDTAVYYCARGVGNGFRFDYWGQGTLVT VL: QSALTQPPSVSGSPGQSITISCTGTSSDVGTYNLVSWYQQHPGNAPKLMIYEVTKRPSGVSNRFSGSKSGNTATLTISGLQAEDEADYHCSSYAGSITHVVFGGGTKLTVL" quantity=pKd result_qualifier== measured_number=7.66
binder="anti-CCR8-1-4 (antibody, V domains shown, Parental-1 heavy chain with a shuffled lambda light chain; Human IgG expressed in CHO cells) VH: QVQLVQSGAEVKKPGASVKVSCKASGYTFTSYYMHWVRQAPGQGLEWMGIINPSGGSTSYAQKFQGRVTMTRDTSTSTVYMELSSLRSEDTAVYYCARGVGNGFRFDYWGQGTLVT VL: QSALTQPASVSGSPGQSITISCSGTSSNIGKYNLVSWYQQHPGEAPTLLIYEATKRPSGVSNRFSGSKSGNTASLTISGLQAEDEADYICSSYAGSRVFVVFGGGTKLTVL" quantity=pKd result_qualifier== measured_number=7.44
